The entries below are paired with their reported ED50.
Organism: Cavia porcellus
Experiment: Agonist activity at beta-adrenergic receptor in guinea pig tracheal tissue assessed as bronchodilator activity
Assay type: tissue-based
Conditions: Trachea

CC(C)(C)NCC(O)c1ccc(O)c(CO)n1 (stereo not drawn) : 2.8 ×10⁻⁹ M

Prompt: Suppose we examine the molecule CC(C)NCC(O)c1ccc(O)c(O)c1 (stereo not drawn) ; what ED50 value has been reported?
Completion: 7.1 ×10⁻⁹ M

Prompt: Tell me the measured ED50 of Cc1nc(C(O)CNC(C)(C)C)ccc1O (stereo not drawn) , please.
Completion: 2.8 ×10⁻⁷ M

Prompt: Give its ED50 value. Item: CC(C)(C)NCC(O)c1ccc(O)c(CS(C)(=O)=O)c1 (stereo not drawn)
Completion: 1.7 ×10⁻⁸ M

Prompt: Would you kindly share the measured ED50 for CC(C)(C)NCC(O)c1ccc(O)c(CO)c1 (stereo not drawn) ?
Completion: 1.1 ×10⁻⁸ M

Prompt: Could you tell me which ED50 is on file for CC(C)NCC(O)c1ccc(O)cc1 (stereo not drawn) ?
Completion: 1.1 ×10⁻⁷ M

Prompt: Item CC(C)(C)NCC(O)c1ccc(O)c(CS(C)(=O)=O)n1 (stereo not drawn) has what recorded ED50?
Completion: 2.9 ×10⁻⁸ M

Prompt: Please look up its ED50: CC(C)(C)NCC(O)c1ccc(O)cn1 (stereo not drawn)
Completion: 3.1 ×10⁻⁷ M

====

Species on record: Cavia porcellus
Test: Selectivity ratio of ED25 for beta-adrenergic receptor in guinea pig right atrial muscle to ED50 for beta-adrenergic receptor in guinea pig tracheal tissue
Format: tissue-based
Settings: Cardiac atrium
reported metric: Selectivity ratio

Cc1nc(C(O)CNC(C)(C)C)ccc1O (configuration not stated) : 36

a. CC(C)(C)NCC(O)c1ccc(O)c(CO)c1 (configuration not stated)
b. CC(C)(C)NCC(O)c1ccc(O)c(CS(C)(=O)=O)c1 (configuration not stated)
Prompt: Pick one, a or b : lowest reported Selectivity ratio. Response format: the label of the selected entry.
Completion: a
(a: 28, b: 1650)

====

Organism: Cavia porcellus
Assay: Intrinsic activity at beta-adrenergic receptor in guinea pig right atrial muscle assessed as rate of contraction of spontaneously beating atria relative to isoproterenol
Assay type: tissue-based
Conditions: Cardiac atrium
reported metric: Intrinsic activity

CC(C)NCC(O)c1ccc(O)cc1 (stereo not given) : 0.8
CC(C)(C)NCC(O)c1ccc(O)c(CS(C)(=O)=O)c1 (stereo not given) : 0.3
CC(C)(C)NCC(O)c1ccc(O)c(CO)c1 (stereo not given) : 0.7

a. CC(C)(C)NCC(O)c1ccc(O)c(CO)n1 (stereo not given)
b. Cc1nc(C(O)CNC(C)(C)C)ccc1O (stereo not given)
Prompt: // which entry has the larger Intrinsic activity value, a or b ? Provide the label of your selected option as the answer.
Completion: a
(a: 0.8, b: 0.4)

====

Species: Cavia porcellus
Experiment: Agonist activity at beta-adrenergic receptor in guinea pig right atrial muscle assessed as rate of contraction of spontaneously beating atria
Type: tissue-based
Settings: Cardiac atrium
reported metric: ED25 (×10⁻⁷ M)

I. CC(C)(C)NCC(O)c1ccc(O)c(CO)n1 (centres undefined)
II. CC(C)(C)NCC(O)c1ccc(O)c(CO)c1 (centres undefined)
Prompt: Consider entries I and II . Which has the numerically lower ED25? Which one? Tell me its label.
Completion: I
(I: 1.2 ×10⁻⁷ M, II: 3.1 ×10⁻⁷ M)

====

Organism: Cavia porcellus
Experiment: Selectivity ratio of ED25 for beta-adrenergic receptor in guinea pig right atrial muscle to ED50 for beta-adrenergic receptor in guinea pig tracheal tissue
Type: tissue-based
Details: Cardiac atrium
# maps each entry to its Selectivity ratio
Format: numeric value only, no unit, no commentary.

CC(C)(C)NCC(O)c1ccc(O)c(CO)n1 (centres undefined) : 43

Kindly consider the entry below.
Prompt: If you can, please state the reported Selectivity ratio value of CC(C)NCC(O)c1ccc(O)cc1 (centres undefined) .
Completion: 0.7
